# Test system: Cytarabine-resistant HL-60
# experiment_description: MTT cytotoxicity assay, drug-resistant blood cancer cells
# Assay type: cell-based
# condition_description: Homo sapiens, 120 h; Cytarabine-resistant HL-60, MTT, 5 days; read-out: IC50, cytotoxic effects on drug-resistant blood cancer cells
readout_kind: IC50

# lookup: Nc1ccn([C@@H]2O[C@H](CO)[C@@H](O)[C@@H]2O)c(=O)n1 [Cytarabine, cytarabine] on Cytarabine-resistant HL-60, IC50 = > 30 µM
